# IC50 measurements, system: Macrophage metalloelastase (Homo sapiens)
# Sequence (P39900 whole entry): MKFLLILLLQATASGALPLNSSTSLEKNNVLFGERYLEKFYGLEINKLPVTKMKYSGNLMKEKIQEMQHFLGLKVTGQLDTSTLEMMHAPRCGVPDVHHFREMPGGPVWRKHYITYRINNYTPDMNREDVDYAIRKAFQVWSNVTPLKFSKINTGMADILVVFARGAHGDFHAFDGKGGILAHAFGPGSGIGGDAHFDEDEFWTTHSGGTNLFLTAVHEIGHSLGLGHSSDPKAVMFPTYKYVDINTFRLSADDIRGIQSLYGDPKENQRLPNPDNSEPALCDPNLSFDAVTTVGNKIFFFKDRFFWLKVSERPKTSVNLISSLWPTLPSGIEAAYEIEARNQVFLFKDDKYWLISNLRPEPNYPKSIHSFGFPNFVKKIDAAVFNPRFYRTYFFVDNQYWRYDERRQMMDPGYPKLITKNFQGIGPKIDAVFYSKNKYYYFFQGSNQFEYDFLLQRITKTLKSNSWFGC
Reply numerically in nM, unit not repeated.

Sample records with IC50:
Task item: // map `NC(=O)C[C@@H](NC(=O)c1cc(-c2ccc(OC(F)(F)F)cc2)c(F)s1)c1ccccc1` to recorded IC50 (system: Macrophage metalloelastase (Homo sapiens))
Reply: 85

Task item: Form field: IC50 recorded for `O=C(NC[C@H]1CC[C@H](C(=O)O)CC1)c1cc(-c2ccc(OC(F)(F)F)cc2)ns1` with Macrophage metalloelastase (Homo sapiens) (enter value)
Reply: 3600

Continuing:
Task item: // lookup IC50 | system=Macrophage metalloelastase (Homo sapiens) | key= `O=C(NC[C@H]1CC[C@H](C(=O)O)CC1)c1cc(-c2ccc(OC(F)(F)F)cc2)sn1`
Reply: 31000

Task item: // map `O=C(NC[C@H]1CC[C@H](C(=O)O)CC1)c1cc(-c2ccc(OC(F)(F)F)cc2)cs1` to recorded IC50 (system: Macrophage metalloelastase (Homo sapiens))
Reply: 400
